- Tested on: U2OS
- method-description: Incucyte cell viability with U2OS; also: unitless GR value; below 1 slowed growth and below 0 cell loss
- Format: toxicity, cell-based
- condition-label: human, 0 h, 10 µM, compound concentration 10 uM, replicate number 2
Use YES when the recorded Growth Rate is no lower than 0.5; use NO when it is lower.

Observe how each entry below is paired with its result.
CCOP(=O)(OCC)C(=Cc1cc(C(C)(C)C)c(O)c(C(C)(C)C)c1)P(=O)(OCC)OCC: NO
COc1ccc(OC(=O)N(CC(=O)O)Cc2ccc(OCCc3nc(-c4ccccc4)oc3C)cc2)cc1 [MURAGLITAZAR]: YES
C[C@@H](Oc1cc(-n2cnc3ccc(OC4CCN(C)CC4)cc32)sc1C(N)=O)c1ccccc1Cl [GSK-579289A]: NO
O=C(Nc1ccccc1Cl)c1cnc2ccc(C3CCNCC3)cn12.O=C(O)C(=O)O: NO

Okay, next one:
Say whether `CC(C)(C)NC(=O)c1cncn1C1CCN(c2ccc(-c3nnc(C(F)(F)F)o3)cn2)CC1` shows Growth Rate of 0.5 or more. YES

###

Growth Rate listing for selected compounds.
- System: U2OS
- method-description: Incucyte cell viability with U2OS; also: unitless GR value; below 1 slowed growth and below 0 cell loss
- Assay type: toxicity, cell-based
- condition-label: human, 18 h, 10 µM, compound concentration 10 uM, replicate number 1
Reply briefly: the number, and no unit.

CC(C)c1cnn2c(NCc3ccccc3)cc(NCCCCCCN)nc12.Cl: 0.92

Next compound, please.
Short answer please: Growth Rate, U2OS, entry `CN1CCN(c2ccc(Nc3ncc4cc5n(c4n3)C3(CCCCC3)CNC5=O)nc2)CC1` 0.92

###

- Tested on: U2OS
- method-description: Incucyte cell viability with U2OS; also: unitless GR value; below 1 slowed growth and below 0 cell loss
- Assay type: toxicity, cell-based
- condition-label: human, 0 h, 10 µM, compound concentration 10 uM, replicate number 2
parameter: Growth Rate

Name the recorded Growth Rate for `Nc1nccc(-c2ccn3c(N)nccc23)n1` . -0.76

I would be grateful if you could share the reported Growth Rate for `CCN(C)S(=O)(=O)Nc1cccc(-c2ccc3c(NC(=O)C4CC4)n[nH]c3c2)c1` . -0.42

Any idea what its Growth Rate is? The compound is COc1cc(C(=O)O)ncc1C#Cc1ccccc1NS(=O)(=O)c1cccc2c(N(C)C)ccnc12 [MSC-0516] 0.61

I'd like to know its Growth Rate. The compound in question is `CCCCNc1ncc2c(-c3ccc(CN4CCN(C)CC4)cc3)cn([C@H]3CC[C@H](O)CC3)c2n1` 0.17

// returns reported Growth Rate for input CCO[C@@H](Cc1ccc(OCCc2ccc(OS(C)(=O)=O)cc2)cc1)C(=O)O [TESAGLITAZAR] 0.8

Field request: Growth Rate | item: `CCc1nc(-c2cccc(C)c2)c(-c2ccncc2)s1` 0.65

Look at this compound and give its reported Growth Rate. CN1CCN(c2ccc(C(=O)Nc3n[nH]c4ccc(Cc5cc(F)cc(F)c5)cc34)c(NC3CCOCC3)c2)CC1 [ENTRECTINIB] -1

Give its Growth Rate value. Item: CC(=O)Nc1cccc(-n2c(=O)n(C3CC3)c(=O)c3c(Nc4ccc(I)cc4F)n(C)c(=O)c(C)c32)c1 [TRAMETINIB] 0.61

Consider the compound `CN(C)[C@H]1CC[C@H](Nc2ncc3ncnc(Nc4ccc(F)c(Cl)c4)c3n2)CC1` and give its measured Growth Rate. 0.58

I would be grateful if you could share the reported Growth Rate for `Cl.NC(=O)c1ccccc1Nc1nc(-c2ccc(N3CCOCC3)cc2)cc2ncccc12` . 0.86

// returns reported Growth Rate for input `CC(C)c1cnn2c(NCc3ccccc3)cc(NCCCCCCN)nc12.Cl` 0.64

Recorded Growth Rate of `CCc1c(-c2ccc3[nH]ncc3c2)cnc(N)c1-c1ccc(O)cc1` , please. -0.93

I'd like to know its Growth Rate. The compound in question is `COc1ccc(CC(=O)NCc2ccccc2-c2ccccc2C(=O)NCc2ccc(F)cc2F)cc1` -0.96

# input compound: COc1ccc(CCN(C)CCCC(C#N)(c2cc(OC)c(OC)c(OC)c2)C(C)C)cc1OC.Cl (stereo not given) [GALLOPAMIL HYDROCHLORIDE] ; wanted: its Growth Rate -0.88

// returns reported Growth Rate for input `COc1cc2ncnc(Nc3ccc(Oc4ccccc4)cc3C)c2cc1OC.Cl` -0.92

Field request: Growth Rate | item: `Cc1sc(C(=O)c2cncnc2N[C@@H]2C[C@H](COS(N)(=O)=O)[C@@H](O)C2)cc1[C@@H]1NCCc2ccc(Cl)cc21` 0.29

Quick one: Growth Rate of CCn1c(-c2nc3cc(C(=O)N4CCCC(N)C4)ccc3n2C)cc2ccccc21.Cl (stereo not given) ? -0.69

I would be grateful if you could share the reported Growth Rate for C=C[C@H]1C[N@@]2CC[C@H]1C[C@@H]2[C@@H](O)c1ccnc2ccc(OC)cc12 [QUINIDINE] . -1

Cited source: ChEMBL document CHEMBL5303304
